B1: Pistol ribozyme (parent)
chain: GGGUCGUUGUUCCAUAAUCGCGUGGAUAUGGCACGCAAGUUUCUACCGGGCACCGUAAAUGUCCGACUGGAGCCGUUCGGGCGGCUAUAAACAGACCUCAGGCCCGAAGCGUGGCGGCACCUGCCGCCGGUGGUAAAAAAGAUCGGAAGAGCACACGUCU

variants of: B1; test: aptazyme ON/OFF ratio, guanine; higher = stronger switching; co-transcriptional cleavage with and without guanine
observable: aptazyme ON/OFF ratio

1. U7C U8G G9C U10C U11C C13U    1.02
2. U7G U8C G9U C12G    3.03
3. U8C G9U U10G C13A    1.42
4. U7A U8C G9U U10G U11A C12G    1.21
5. U7A U8G G9A U10C U11G C13G    1.3
6. U7A U8G U11G C12G C13G    1.32
7. U7C U8G U10C C13A    1.86
8. U7C U8G G9C U10G C12G C13G    1.12
9. U7G U8G G9C U10G U11G    1.26
10. U7A U8A G9A U10G U11C C12U C13U    1.23
11. U7C U8G G9U U10C C12A C13U    1.37
12. U7A G9U U10G U11A    1.08
13. U7C G9A U10C U11C C12G C13U    1.04
14. U7A U8A G9U U11A C12A    1.25
15. U8A U11G C12A C13A    1.15
16. U7G U8A U11G C12U C13U    1.17
17. U7A G9A U10C U11A C12G C13G    1.32
18. G9C U11A C12U C13U    1.34
19. U7G U10A U11A C13G    1.11
20. U7A U8A G9C U10G C12A C13U    1.27
21. U7G U8G U10G U11A C12G C13G    1.44
22. U7G U8C G9C U10G U11G    1.17
23. U7G G9U U10C U11A C12G    1.57
24. U7C G9C U10A U11A C12U C13U    1.09
25. U7G U8A G9A U10A U11G C12G C13A    1.1
26. U7A U8G U10C U11C C12G C13A    1.07
27. U8A U11C C12A C13U    1.38
28. U7G U8G G9U U10A C12G C13U    1.13
29. U7G G9A U11C    1.17
30. U8C U10G U11C C13G    1.07
31. U8G G9U U10C U11A C12G C13U    1.16
32. U7C U8G G9A U10C C13A    1.04
33. U7A G9C U10G U11G    1.06
34. G9U U10C U11C C13U    1.03
35. U7G U8G G9U U10C U11C C12G C13A    1.19
36. U8G G9A U10A C13U    1.22
37. U8A G9A U10A U11G C12G C13U    1.29
38. U7A U8G G9A U10G U11G C12A C13A    1.65
39. U8C G9U U11C C12G C13U    1.15
40. U8C G9U C12G C13G    1.17
41. U7A U8C U10A C12G    1.18
42. G9A U11A C13U    1.34
43. U7G G9C U11G C12A C13G    1.31
44. U7G U8A G9A U10G C12U    1.52
45. U8A G9C U10G U11A C12A C13G    1.16
46. U7A U8G U10G U11C C12A C13G    1.11
